- protocol notes: LNP hydrodynamic diameter and polydispersity index by dynamic light scattering (DLS)
- Assay type: physicochemical
- experimental conditions: LNP of 47.5% Ionizable Lipid:40% cholesterol:2.5% PEG-2000 DMG:10% DPSC, N/P ratio 4-8
attribute measured: Mean PDI
Respond numerically, and do not add a unit to the figure.

Worked cases, Mean PDI given:
# molecule, Mean PDI
rows = [
    ("CC/C=C\\CCCCOC(CCC(=O)OCCC(CCOC(=O)CCC(OCCCC/C=C\\CC)OCCCC/C=C\\CC)OC(=O)OCCCN(C)C)OCCCC/C=C\\CC [Example 7-9]", 0.13),
    ("CC/C=C\\CCCCOC(CCC(=O)OCCC(CCOC(=O)CCCCCCC/C=C\\C/C=C\\CCCCC)OC(=O)OCCCN(C)CC)OCCCC/C=C\\CC (stereo not shown) [Example 7-3]", 0.13),
    ("CC/C=C\\CCCCOC(CCC(=O)OCCCCC(CCCCOC(=O)CCCCCCC/C=C\\C/C=C\\CCCCC)OC(=O)OCC1CCCN(CC)C1)OCCCC/C=C\\CC (stereo not shown) [Example 7-41]", 0.11),
    ("CC/C=C\\CCCCOC(CCC(=O)OCCC(CCOC(=O)CCCCCCC/C=C\\C/C=C\\CCCCC)OC(=O)OCCCN(CC)CC)OCCCC/C=C\\CC (stereo not shown) [Example 7-2]", 0.12),
    ("CC/C=C\\CCCCOC(CCC(=O)OCCCC(CCCOC(=O)CCCCCCC/C=C\\C/C=C\\CCCCC)OC(=O)OCC1CCCN(CC)C1)OCCCC/C=C\\CC (stereo not shown) [Example 7-21]", 0.11),
    ("CCCCC/C=C\\C/C=C\\CCCCCCCC(=O)OCCC(CCOC(=O)CCC(OCCCCCCCC)OCCCCCCCC)OC(=O)CCCN1CCCC1 (stereo not shown) [Example 7-15]", 0.16),
]

Ask: Which Mean PDI value is on record for CC/C=C\CCCCOC(CCC(=O)OCCC(CCOC(=O)CCCCCCC/C=C\C/C=C\CCCCC)OC(=O)OCCCN(C)C)OCCCC/C=C\CC (stereo not shown) [Example 7-4] ?
Reply: 0.13

Ask: Suppose we examine the molecule CCCCC/C=C\C/C=C\CCCCCCCC(=O)OCCC(CCOC(=O)CCC(OCCCCCCCC)OCCCCCCCC)OC(=O)OCC1CCCN(CC)C1 (stereo not shown) [Example 7-11] ; what Mean PDI value has been reported?
Reply: 0.13

Ask: Given CCCCC/C=C\C/C=C\CCCCCCCC(=O)OCCC(CCOC(=O)CCC(OCCCCCCCC)OCCCCCCCC)OC(=O)OCCCN(C)C (stereo not shown) [Example 7-14] , state its recorded Mean PDI.
Reply: 0.18

Ask: # Mean PDI lookup, item CC/C=C\CCCCOC(CCC(=O)OCCCCC(CCCCOC(=O)CCC(OCCCC/C=C\CC)OCCCC/C=C\CC)OC(=O)OCC1CCCN(CC)C1)OCCCC/C=C\CC (stereo not shown) [Example 7-34]
Reply: 0.12

Ask: If you can, please state the reported Mean PDI value of CC/C=C\CCCCOC(CCC(=O)OCCC(CCOC(=O)CCC(OCCCC/C=C\CC)OCCCC/C=C\CC)OC(=O)OCCCN(C)CC)OCCCC/C=C\CC [Example 7-8] .
Reply: 0.09

Ask: Need Mean PDI, item CCCCC/C=C\C/C=C\CCCCCCCC(=O)OCCC(CCOC(=O)CCC(OCCCCCCCC)OCCCCCCCC)OC(=O)OCCCN(CC)CC (stereo not shown) [Example 7-12]
Reply: 0.16

Ask: Can you look up the measured Mean PDI of CCCCCCCCOC(CCC(=O)OCCC(CCOC(=O)CCC(OCCCCCCCC)OCCCCCCCC)OC(=O)OCC1CCCN(CC)C1)OCCCCCCCC (stereo not shown) [Example 7-16] for me?
Reply: 0.16

Ask: Which Mean PDI is reported for this molecule? CCCCC/C=C\C/C=C\CCCCCCCC(=O)OCCC(CCOC(=O)CCC(OCCCCCCCC)OCCCCCCCC)OC(=O)OCCCN(C)CC (stereo not shown) [Example 7-13]
Reply: 0.15

Ask: Please give the measured Mean PDI for this molecule: CC/C=C\CCCCOC(CCC(=O)OCCC(CCOC(=O)CCC(OCCCC/C=C\CC)OCCCC/C=C\CC)OC(=O)OCCCN(CC)CC)OCCCC/C=C\CC [Example 7-7]
Reply: 0.17

Ask: GET /values?readout=Mean PDI&item= CCCCCCCCOC(CCC(=O)OCCC(CCOC(=O)CCC(OCCCCCCCC)OCCCCCCCC)OC(=O)OCCCN(C)CC)OCCCCCCCC [Example 7-18]
Reply: 0.16

Hey, just so you know, these numbers are from patent US20240335385A1.
